Biological target: CYP3A4 (Homo sapiens)
Sequence (P08684 whole entry): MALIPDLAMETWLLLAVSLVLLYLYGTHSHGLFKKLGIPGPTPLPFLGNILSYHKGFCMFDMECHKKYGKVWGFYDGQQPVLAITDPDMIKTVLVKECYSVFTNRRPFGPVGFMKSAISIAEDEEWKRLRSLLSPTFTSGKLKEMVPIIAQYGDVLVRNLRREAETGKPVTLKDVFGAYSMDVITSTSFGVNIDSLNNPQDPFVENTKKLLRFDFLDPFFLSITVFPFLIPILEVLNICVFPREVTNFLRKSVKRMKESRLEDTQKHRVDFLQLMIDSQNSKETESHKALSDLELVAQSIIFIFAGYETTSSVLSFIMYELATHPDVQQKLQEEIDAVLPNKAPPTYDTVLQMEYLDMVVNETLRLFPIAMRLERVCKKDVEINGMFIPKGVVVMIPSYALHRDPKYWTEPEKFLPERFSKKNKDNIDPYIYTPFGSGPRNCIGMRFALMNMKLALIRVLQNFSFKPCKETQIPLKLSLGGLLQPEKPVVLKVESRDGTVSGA
Assay: Inhibition of cytochrome P450 3A4 was determined at 2 uM
Use 70% as the dividing line for inhibition at 2 µM, with the line itself on the Y side and lower values as N.

compound | category
COc1ccc(CNC(=O)C(c2ccc(OC)cc2)N2CCN(CC(O)COc3c(C)cccc3C)CC2)cc1 (stereo not given) | Y
O=C(NCC(c1ccccc1)N1CCN(CC(O)COc2ccccc2)CC1)c1ccc(F)cc1 (stereo not given) | N
COc1ccc(OC)c(S(=O)(=O)NCC(c2ccccc2)N2CCN(CC(O)COc3ccc(Br)cc3)CC2)c1 (stereo not given) | Y
COc1ccc(OCC(O)CN2CCN(C(CNC(=O)c3ccccc3OC)c3ccccc3)CC2)cc1 (stereo not given) | Y
O=S(=O)(NCC(c1ccc(C(F)(F)F)cc1)N1CCN(CC(O)COc2ccc(F)cc2)CC1)c1ccccc1Cl (stereo not given) | Y

====

Target: UniProt:P10635
Sequence (P10635 whole entry): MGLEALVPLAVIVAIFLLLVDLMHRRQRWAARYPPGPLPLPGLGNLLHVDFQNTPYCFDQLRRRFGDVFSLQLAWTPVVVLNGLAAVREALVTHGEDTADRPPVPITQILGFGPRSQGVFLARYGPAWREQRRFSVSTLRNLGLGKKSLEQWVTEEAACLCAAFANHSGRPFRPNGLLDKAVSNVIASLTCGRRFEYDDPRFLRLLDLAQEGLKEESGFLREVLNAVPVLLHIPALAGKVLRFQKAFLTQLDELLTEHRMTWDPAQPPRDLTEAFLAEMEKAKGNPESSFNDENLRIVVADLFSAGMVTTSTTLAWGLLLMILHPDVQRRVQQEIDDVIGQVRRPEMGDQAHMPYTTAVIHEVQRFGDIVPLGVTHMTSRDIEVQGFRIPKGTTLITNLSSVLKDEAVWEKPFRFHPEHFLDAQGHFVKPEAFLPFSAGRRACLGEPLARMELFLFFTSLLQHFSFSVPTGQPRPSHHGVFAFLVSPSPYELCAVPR

compound | Ki
COc1ccc(CNC(=O)C(c2ccc(OC)cc2)N2CCN(CC(O)COc3c(C)cccc3C)CC2)cc1 (stereo unspecified) | 5 µM
COc1ccc(OCC(O)CN2CCN(C(C(=O)NCc3ccccc3)c3ccc(C(F)(F)F)cc3)CC2)cc1 (stereo unspecified) | 2 µM
COc1ccc(CNC(=O)C(c2ccc(C(F)(F)F)cc2)N2CCN(CC(O)COc3c(C)cccc3C)CC2)cc1 (stereo unspecified) | 2 µM
Cc1cccc(S(=O)(=O)NCC(c2ccc(C(F)(F)F)cc2)N2CCN(CC(O)COc3ccc(Br)cc3)CC2)c1 (stereo unspecified) | 10 µM
O=S(=O)(NCC(c1ccc(C(F)(F)F)cc1)N1CCN(CC(O)COc2ccc(F)cc2)CC1)c1ccccc1Cl (stereo unspecified) | 10 µM
COc1ccc(CNC(=O)C(c2ccc(F)cc2)N2CCN(CC(O)COc3ccc(OC)cc3)CC2)cc1 (stereo unspecified) | 7 µM

====

Target: Sodium channel alpha subunits; brain (Types I, II, III) (Rattus norvegicus, UniProt P04775+P04774+P08104)
Assay: In vitro inhibition of [3H]batrachotoxin binding to neurotoxin site 2 of sodium (Na+) channel in rat cerebral cortex membrane
Type: cell membranes
valueKind: IC50 (nM)

compound | unitOfMeasurement | readoutNumber
COc1ccc(CNC(=O)C(c2ccc(C)cc2)N2CCN(CC(O)COc3c(C)cccc3C)CC2)cc1 (stereo not drawn) | nM | 351
COc1ccc(OC)c(S(=O)(=O)NCC(c2ccccc2)N2CCN(CC(O)COc3ccc(Br)cc3)CC2)c1 (stereo not drawn) | nM | 522
Cc1ccc(C(C(=O)NCc2ccccc2)N2CCN(CC(O)COc3c(C)cccc3C)CC2)cc1 (stereo not drawn) | nM | 325
COc1ccc(CNC(=O)C(c2ccc(F)cc2)N2CCN(CC(O)COc3ccc(OC)cc3)CC2)cc1 (stereo not drawn) | nM | 214
OC(COc1ccccc1)CN1CCN(C(c2ccccc2)c2ccc(C(F)(F)F)cc2)CC1 (stereo not drawn) | nM | 893
COc1ccc(OCC(O)CN2CCN(C(CNC(=O)c3ccc(OC)cc3)c3ccccc3)CC2)cc1 (stereo not drawn) | nM | 871
COc1ccc(OCC(O)CN2CCN(C(C(=O)NCc3ccccc3)c3ccc(F)cc3)CC2)cc1 (stereo not drawn) | nM | 254
COc1ccc(CNC(=O)C(c2ccc(C(F)(F)F)cc2)N2CCN(CC(O)COc3ccc(OC)cc3)CC2)cc1 (stereo not drawn) | nM | 359
COc1ccc(OCC(O)CN2CCN(C(CNC(=O)c3ccccc3OC)c3ccccc3)CC2)cc1 (stereo not drawn) | nM | 721
COc1ccc(CNC(=O)C(c2ccc(OC)cc2)N2CCN(CC(O)COc3c(C)cccc3C)CC2)cc1 (stereo not drawn) | nM | 571
COc1ccc(C(=O)NCC(c2ccccc2)N2CCN(CC(O)COc3ccc(Cl)cc3)CC2)cc1 (stereo not drawn) | nM | 538
COc1ccc(OCC(O)CN2CCN(C(C(=O)NCc3ccccc3)c3ccc(C(F)(F)F)cc3)CC2)cc1 (stereo not drawn) | nM | 429
COc1ccc(OCC(O)CN2CCN(C(CNC(=O)c3ccc(F)cc3)c3ccccc3)CC2)cc1 (stereo not drawn) | nM | 531
O=C(NCC(c1ccccc1)N1CCN(CC(O)COc2ccccc2)CC1)c1ccc(F)cc1 (stereo not drawn) | nM | 363
Cc1cccc(C)c1OCC(O)CN1CCN(C(C(=O)NCc2ccccc2)c2ccc(F)cc2)CC1 (stereo not drawn) | nM | 149
COc1ccc(CNC(=O)C(c2ccc(C(F)(F)F)cc2)N2CCN(CC(O)COc3c(C)cccc3C)CC2)cc1 (stereo not drawn) | nM | 355
C=CCOCC(O)CN1CCN(C(c2ccccc2)c2ccc(Cl)cc2)CC1 (stereo not drawn) | nM | 401
COc1ccc(OCC(O)CN2CCN(C(C(=O)NCc3ccccc3)c3ccc(C)cc3)CC2)cc1 (stereo not drawn) | nM | 579
